- measured-target: BCL6 (Homo sapiens, UniProt P41182)
- Construct: endogenous in cells; host or cells: T47D breast cancer epithelial cells
- protocol: Immunofluorescence protocol for high content imaging of BCL6 (degradation) in T47D cells, 3 days compound treatment
- Format: cell-based
- test-parameters: read-out: Mean DC50 (nM)* category
outcome-measure: DC50

Tell me the measured DC50 of CNC(=O)COc1cc2cc(Nc3nc(N4CCC(O[C@H]5C[C@H](N6CCC7(CC6)CN(c6ccc8c(c6)CN(C6CCC(=O)NC6=O)C8=O)C7)C5)CC4)ncc3Cl)ccc2n(C(C)C)c1=O (some centres unmarked) [Compound 366] , please. < 10 nM

Tell me the measured DC50 of CNC(=O)COc1cc2cc(Nc3nc(N4CCN(CC5CCC6(CC5)CN(c5c(F)ccc7c5CN(C5CCC(=O)NC5=O)C7=O)C6)CC4)ncc3Cl)ccc2n(C(C)C)c1=O (centres unmarked) [Compound 314] , please. < 10 nM

Tell me the measured DC50 of CNC(=O)COc1cc2cc(Nc3nc(N4CCC(O[C@H]5C[C@H](N6CCC7(CCCN(c8ccc9c(c8)C(=O)N(C8CCC(=O)NC8=O)C9=O)C7)C6)C5)CC4)ncc3Cl)ccc2n(C(C)C)c1=O (some centres unmarked) [Compound 359] , please. 10 to 50 nM

Tell me the measured DC50 of CNC(=O)COc1cc2cc(Nc3nc(N4CCC(O[C@H]5C[C@H](N6CCC(c7ccc8c(c7C(F)(F)F)CN(C7CCC(=O)NC7=O)C8=O)CC6)C5)CC4)ncc3Cl)ccc2n(C(C)C)c1=O (some centres unmarked) [Compound 226] , please. < 10 nM

Tell me the measured DC50 of CNC(=O)COc1cc2cc(Nc3nc(N4CCC(CN5CCC6(CN(c7ccc8c(c7)C(=O)N(C7CCC(=O)NC7=O)C8=O)C6)CC5(C)C)CC4)ncc3Cl)ccc2n(C(C)C)c1=O (centres unmarked) [Compound 239] , please. < 10 nM

---

- measured-target: BCL6 (Homo sapiens, UniProt P41182)
- Construct: endogenous in cells; host or cells: T47D breast cancer epithelial cells
- protocol: Immunofluorescence protocol for high content imaging of BCL6 (degradation) in T47D cells, 3 days compound treatment
- Format: cell-based
- test-parameters: T47D cells, 3 days compound treatment, read-out: Mean Dmax (%)** category
outcome-measure: Dmax

Completed entries (count: 2):
[[record]]
compound = "CNC(=O)COc1cc2cc(Nc3nc(N4CCC(C(C)(C)N5CC6(CCN(c7cccc8c7CN(C7CCC(=O)NC7=O)C8=O)CC6)C5)CC4)ncc3Cl)ccc2n(C(C)C)c1=O (stereo not drawn) [Compound 8]"
measured = "≥ 70%"

[[record]]
compound = "CNC(=O)COc1cc2cc(Nc3nc(N4CCC5(CC4)CC(C(C)(C)N4CCN(c6cccc7c6CN(C6CCC(=O)NC6=O)C7=O)CC4)C5)ncc3Cl)ccc2n(C(C)C)c1=O (stereo not drawn) [Compound 34]"
measured = "50 to 70%"


Please find the next compound below.
Tell me the measured Dmax of CNC(=O)COc1cc2cc(Nc3nc(N4CCC(O[C@H]5C[C@H](N6CCN(c7ccc8c(n7)CN(C7CCC(=O)NC7=O)C8=O)CC6)C5)CC4)ncc3Cl)ccc2n(C(C)C)c1=O (stereo partly drawn) [Compound 189] , please. 50 to 70%

---

Quick reference for DC50 among some molecules
- measured-target: BCL6 (Homo sapiens)
- Construct: endogenous in cells; host or cells: T47D breast cancer epithelial cells
- protocol: Immunofluorescence protocol for high content imaging of BCL6 (degradation) in T47D cells, 3 days compound treatment
- Assay type: cell-based
- test-parameters: read-out: Mean DC50 (nM)* category

[[record]]
molecule = "CNC(=O)COc1cc2cc(Nc3nc(N4CCC(O[C@H]5C[C@H](N6[C@@H](C)CN(c7ccc8c(c7)CN(C7CCC(=O)NC7=O)C8=O)C[C@@H]6C)C5)CC4)ncc3Cl)ccc2n(C(C)C)c1=O (some centres unmarked)"
measured = "< 10 nM"


Tell me the measured DC50 of CNC(=O)COc1cc2cc(Nc3nc(N4CCC(O[C@H]5C[C@H](N6CCC(c7cc8c(cc7C(F)(F)F)C(=O)N(C7CCC(=O)NC7=O)C8)CC6)C5)CC4)ncc3Cl)ccc2n(C(C)C)c1=O (some centres unmarked) , please. < 10 nM

Tell me the measured DC50 of CNC(=O)COc1cc2cc(Nc3nc(N4CCC(O[C@H]5C[C@H](N6CCC(c7cc8c(cc7OC)C(=O)N(C7CCC(=O)NC7=O)C8)CC6)C5)CC4)ncc3Cl)ccc2n(C(C)C)c1=O (some centres unmarked) , please. < 10 nM

Tell me the measured DC50 of CNC(=O)COc1cc2cc(Nc3nc(N4CCC(N5CCC56CN(C5CCN(c7ccc8c(c7)CN(C7CCC(=O)NC7=O)C8=O)CC5)C6)CC4)ncc3Cl)ccc2n(C(C)C)c1=O (centres unmarked) , please. < 10 nM

Tell me the measured DC50 of CNC(=O)COc1cc2cc(Nc3nc(N4CCC(O[C@H]5C[C@H](N6CCC(c7ccc8c(c7F)[C@@H](C)N([C@H]7CCC(=O)NC7=O)C8=O)CC6)C5)CC4)ncc3Cl)ccc2n(C(C)C)c1=O , please. 10 to 50 nM

---

- measured-target: BCL6 (Homo sapiens, UniProt P41182)
- Construct: endogenous in cells; host or cells: T47D breast cancer epithelial cells
- protocol: Immunofluorescence protocol for high content imaging of BCL6 (degradation) in T47D cells, 3 days compound treatment
- Format: cell-based
- test-parameters: T47D, read-out: Mean Dmax (%)** category
outcome-measure: Dmax

Completed entries (count: 5):
[[record]]
compound = "CNC(=O)COc1cc2cc(Nc3nc(N4CCC(O[C@H]5C[C@H](N6CCC(c7cc8c(cn7)C(=O)N(C7CCC(=O)NC7=O)C8)CC6)C5)CC4)ncc3Cl)ccc2n(C(C)C)c1=O (stereo partly drawn)"
measured_target = "BCL6 (Homo sapiens, UniProt P41182)"
measured = "50 to 70%"

[[record]]
compound = "CNC(=O)COc1cc2cc(Nc3nc(N4CCC(O[C@H]5C[C@H](N6[C@H](C)CN(c7ccc8c(c7)C(=O)N(C7CCC(=O)NC7=O)C8=O)C[C@@H]6C)C5)CC4)ncc3Cl)ccc2n(C(C)C)c1=O (stereo partly drawn)"
measured_target = "BCL6 (Homo sapiens, UniProt P41182)"
measured = "50 to 70%"

[[record]]
compound = "CNC(=O)COc1cc2cc(Nc3nc(N4CCC(O[C@H]5C[C@H](N6CCC7(CCN(c8ccc9c(c8)C(=O)N(C8CCC(=O)NC8=O)C9=O)C7)CC6)C5)CC4)ncc3Cl)ccc2n(C(C)C)c1=O (stereo partly drawn)"
measured_target = "BCL6 (Homo sapiens, UniProt P41182)"
measured = "50 to 70%"

[[record]]
compound = "CNC(=O)COc1cc2cc(Nc3nc(N4CCC(O[C@H]5C[C@H](N6CC[C@@H](c7ccc8c(c7F)CN([C@H]7CCC(=O)NC7=O)C8=O)C[C@@H]6C)C5)CC4)ncc3Cl)ccc2n(C(C)C)c1=O"
measured_target = "BCL6 (Homo sapiens, UniProt P41182)"
measured = "≥ 70%"

[[record]]
compound = "CNC(=O)COc1cc2cc(Nc3nc(N4CCC(O[C@H]5C[C@H](N6CCC(c7cc8c(cc7OC)C(=O)N(C7CCC(=O)NC7=O)C8)CC6)C5)CC4)ncc3Cl)ccc2n(C(C)C)c1=O (stereo partly drawn)"
measured_target = "BCL6 (Homo sapiens, UniProt P41182)"
measured = "≥ 70%"


Please find the next compound below.
Tell me the measured Dmax of CNC(=O)COc1cc2cc(Nc3nc(N4CCC(N5CCC56CN(C5CCN(c7ccc8c(c7)CN(C7CCC(=O)NC7=O)C8=O)CC5)C6)CC4)ncc3Cl)ccc2n(C(C)C)c1=O (stereo not drawn) , please. 50 to 70%

---

Quick reference for Dmax among some molecules
- measured-target: BCL6 (Homo sapiens)
- Construct: endogenous in cells; host or cells: T47D breast cancer epithelial cells
- protocol: Immunofluorescence protocol for high content imaging of BCL6 (degradation) in T47D cells, 3 days compound treatment
- Type: cell-based
- test-parameters: T47D, read-out: Mean Dmax (%)** category

Completed entries (count: 5):
[[record]]
molecule = "CNC(=O)COc1cc2cc(Nc3nc(N4CCC(O[C@H]5C[C@H](N6CCN(c7ccc8c(c7F)CN([C@H]7CCC(=O)NC7=O)C8=O)CC6)C5)CC4)ncc3Cl)ccc2n(C(C)C)c1=O"
outcome_measure = "Dmax"
measured = "50 to 70%"

[[record]]
molecule = "CNC(=O)COc1cc2cc(Nc3nc(N4CCC(O[C@H]5C[C@H](N6CCC(c7ccc8c(c7)C(=O)N(C7CCC(=O)NC7=O)C8=O)C6)C5)CC4)ncc3Cl)ccc2n(C(C)C)c1=O (stereo partly shown)"
outcome_measure = "Dmax"
measured = "50 to 70%"

[[record]]
molecule = "CNC(=O)COc1cc2cc(Nc3nc(N4CCC(OC5CCC6(CC5)CN(c5cc(OC)cc7c5CN(C5CCC(=O)NC5=O)C7=O)C6)CC4)ncc3Cl)ccc2n(C(C)C)c1=O (stereo not shown)"
outcome_measure = "Dmax"
measured = "50 to 70%"

[[record]]
molecule = "CNC(=O)COc1cc2cc(Nc3nc(N4CCC(O[C@H]5C[C@H](N6CCC7(CCN(c8ccc9c(c8)CN(C8CCC(=O)NC8=O)C9=O)C7)CC6)C5)CC4)ncc3Cl)ccc2n(C(C)C)c1=O (stereo partly shown)"
outcome_measure = "Dmax"
measured = "50 to 70%"

[[record]]
molecule = "CNC(=O)COc1cc2cc(Nc3nc(N4CCC(CN5CC(N6CCC(c7ccc8c(c7)C(=O)N(C7CCC(=O)NC7=O)C8=O)C(F)C6)C5)CC4)ncc3Cl)ccc2n(C(C)C)c1=O (stereo not shown)"
outcome_measure = "Dmax"
measured = "50 to 70%"


Tell me the measured Dmax of CNC(=O)COc1cc2cc(Nc3nc(N4CCC(O[C@H]5C[C@H](N6[C@@H](C)CN(c7ccc8c(c7)C(=O)N(C7CCC(=O)NC7=O)C8=O)C[C@@H]6C)C5)CC4)ncc3Cl)ccc2n(C(C)C)c1=O (stereo partly shown) , please. ≥ 70%

Tell me the measured Dmax of CNC(=O)COc1cc2cc(Nc3nc(N4CCC(O[C@H]5C[C@H](N6CC7(CCN(c8ccc9c(c8)C(=O)N(C8CCC(=O)NC8=O)C9=O)C7)C6)C5)CC4)ncc3Cl)ccc2n(C(C)C)c1=O (stereo partly shown) , please. ≥ 70%

Tell me the measured Dmax of CNC(=O)COc1cc2cc(Nc3nc(N4CCC(CN5CCC6(CN(c7ccc8c(c7OC)CN(C7CCC(=O)NC7=O)C8=O)C6)C(F)(F)C5)CC4)ncc3Cl)ccc2n(C(C)C)c1=O (stereo not shown) , please. < 50%

Tell me the measured Dmax of CNC(=O)COc1cc2cc(Nc3nc(N4CCC(O[C@H]5C[C@H](N6CCC(c7ccc8c(c7F)[C@@H](C)N(C7CCC(=O)NC7=O)C8=O)CC6)C5)CC4)ncc3Cl)ccc2n(C(C)C)c1=O (stereo partly shown) , please. ≥ 70%

Tell me the measured Dmax of CNC(=O)COc1cc2cc(Nc3nc(N4CCC(N5CCC6(C5)CN(C5CCN(c7ccc8c(c7)CN(C7CCC(=O)NC7=O)C8=O)CC5)C6)CC4)ncc3Cl)ccc2n(C(C)C)c1=O (stereo not shown) , please. 50 to 70%

Tell me the measured Dmax of CNC(=O)COc1cc2c(F)c(Nc3cc(N4CCN(CC5CCC6(CC5)CN(c5cccc7c5C(=O)N(C5CCC(=O)NC5=O)C7=O)C6)CC4)ncc3Cl)ccc2n(C(C)C)c1=O (stereo not shown) , please. ≥ 70%

Tell me the measured Dmax of CNC(=O)COc1cc2cc(Nc3nc(N4CCC(O[C@H]5C[C@H](N6CC7(CN(c8ccc9c(c8)CN(C8CCC(=O)NC8=O)C9=O)C7)C6)C5)CC4)ncc3Cl)ccc2n(C(C)C)c1=O (stereo partly shown) , please. ≥ 70%

Tell me the measured Dmax of CNC(=O)COc1cc2cc(Nc3nc(N4CCC(O[C@H]5C[C@H](N6CCC(c7c(C)cc8c(c7F)CN(C7CCC(=O)NC7=O)C8=O)CC6)C5)CC4)ncc3Cl)ccc2n(C(C)C)c1=O (stereo partly shown) , please. ≥ 70%

Tell me the measured Dmax of CNC(=O)COc1cc2cc(Nc3nc(N4CCC(O[C@H]5C[C@H](N6CC=C(c7ccc8c(c7Cl)CN([C@H]7CCC(=O)NC7=O)C8=O)CC6)C5)CC4)ncc3Cl)ccc2n(C(C)C)c1=O , please. ≥ 70%
